Test system: SK-MEL-5 melanoma
run_description: NCI-60 one-dose screen, 48 h (100 = growth as untreated, 0 = no growth, -100 = all killed)
study_conditions: 10 µM unless noted
The panel holds about 83,000 compounds, 20% with a hit somewhere; the sample as a whole holds those more often.
Short version: growth at least 70% is Criterion met, less is Criterion not met.

Consider the worked cases shown below.
>  <compound>
O=C(/C=C/c1ccc(-c2ccccc2)cc1)c1nc2ccccc2n1Cc1ccc(Br)cc1

>  <group_label>
Criterion met

$$$$
>  <compound>
N#Cc1ccc(C(=O)Nn2c(N)cc3ccccc3c2=O)cc1

>  <group_label>
Criterion met

$$$$
>  <compound>
COc1cc2c(c(OC)c1OC)C(=O)CC(c1cccc(NC(=O)c3cc([N+](=O)[O-])ccc3Cl)c1)O2 (stereo not given)

>  <group_label>
Criterion not met

$$$$

Next, consider the following compound.
INPUT: Hi team, for O=C1NC(=O)/C(=C/c2ccccc2OCc2cc3ccccc3nc2Cl)S1 , is the recorded growth at or above 70%?
OUTPUT: Criterion not met

---

growth: recorded values
Tested on: NCI/ADR-RES ovarian
run_description: NCI-60 one-dose screen, 48 h (100 = growth as untreated, 0 = no growth, -100 = all killed)
study_conditions: 10 µM unless noted
Compounds without any hit were thinned out: in the full panel of roughly 83,000, 20% have a hit.
Quick reminder: number only, in %, skip the unit.

INPUT: Name the reported growth value associated with the compound Cc1ccc(NC(=O)[C@]23CCC(C)(C)CC2C2=CCC4[C@@]5(C)C[C@@H](O)[C@H](O)[C@@](C)(CO)C5CC[C@@]4(C)[C@]2(C)CC3)cc1 (some centres undefined)
OUTPUT: 31.4

INPUT: Name the reported growth value associated with the compound CC12CC[C@@H]3[C@]4(C)COC(c5cn[nH]c5-c5cccc(Cl)c5)O[C@@H]4CC[C@@]3(C)[C@@H]1CC(C1=CCOC1=O)O2 (some centres undefined)
OUTPUT: 31.1

INPUT: Name the reported growth value associated with the compound COc1c(F)ccc(C(=O)Nc2ccc3nc(NC(=O)C4CCCN(S(=O)(=O)c5cccc(C(F)(F)F)c5)C4)sc3c2)c1F (centres undefined)
OUTPUT: 84.3

INPUT: Name the reported growth value associated with the compound C=C1CCC2C3(C)COC(c4cccc(F)c4)OC3CCC2(C)C1C/C=C1/C(=O)OCC1O (centres undefined)
OUTPUT: -18

---

Tested on: SN12C renal
run_description: NCI-60 one-dose screen, 48 h
study_conditions: 10 µM unless noted
About 83,000 compounds went through this panel and 20% of them were active in at least one assay; those are over-represented in the sample as a whole. Calls of active or inactive are those of the source. The calls were made as follows: active = growth percent below 10; inactive = the rest.
The categories you may choose from are active, inactive

>  <compound>
CC(C)C(C(=O)O)n1c(O)c(/C=C2/C=c3cc4c(cc3=NC2=O)OCO4)sc1=S (stereo unspecified)

>  <assayed_system>
SN12C renal

>  <group_label>
inactive

$$$$
>  <compound>
C#CCOc1cc(N(CC)CC)ccc1C(C(=O)NC(C)(C)C)N(C(=O)C1CCc2cc(F)ccc2O1)c1ccc(F)cc1 (stereo unspecified)

>  <assayed_system>
SN12C renal

>  <group_label>
inactive

$$$$
>  <compound>
CCCn1cc(-c2nc(Nc3ccc(C(=O)NCCCCNc4cccc5c4C(=O)N(C4CCC(=O)NC4=O)C5=O)cc3)nc3[nH]ccc23)cn1 (stereo unspecified)

>  <assayed_system>
SN12C renal

>  <group_label>
inactive

$$$$

INPUT: Recorded test outcome, item COc1cc2oc(-c3cccc(C(=O)Nc4ccc(Cl)cc4)c3)cc(=O)c2c(OCCNC(=O)[C@H](CO)NC(=O)OC(C)(C)C)c1OC
OUTPUT: inactive

INPUT: Recorded test outcome, item COc1ccc(C(=O)/C=C/c2ccc(OCc3ccccc3)c(OC)c2)cc1OC
OUTPUT: active

INPUT: Recorded test outcome, item O=C(NN1C(=O)/C(=C/C=C/c2ccc([N+](=O)[O-])o2)SC1=S)c1ccc(Cl)cc1
OUTPUT: active

INPUT: Recorded test outcome, item Cn1cc(-c2cc3nc(-c4cn(C)c5ncccc45)cc(N)n3n2)c2ccccc21
OUTPUT: active

---

System: RXF 393 renal
run_description: NCI-60 one-dose screen, 48 h
study_conditions: 10 µM unless noted
Compounds without any hit were thinned out: in the full panel of roughly 83,000, 20% have a hit. Activity calls are given as the source filed them. Rule for the calls: active = growth percent below 10; inactive = the rest.
The categories you may choose from are active, inactive

>  <molecule>
CC1CCCCN1CCCNC(=O)N/C(N)=N/c1nc2ccccc2s1 (stereo not given)

>  <assayed_system>
RXF 393 renal

>  <group_label>
active

$$$$
>  <molecule>
Cc1ccc(C2=NN(c3nc(-c4cc5ccccc5oc4=O)cs3)C(c3ccc(C)cc3)C2)cc1 (stereo not given)

>  <assayed_system>
RXF 393 renal

>  <group_label>
inactive

$$$$
>  <molecule>
C=C1CCC2C3(C)COC(c4ccc(F)cc4)OC3CCC2(C)C1C/C=C1/C(=O)OCC1O (stereo not given)

>  <assayed_system>
RXF 393 renal

>  <group_label>
active

$$$$
>  <molecule>
COc1ccc(C(=O)/C=C/c2ccc(OC)c(OCc3ccccc3)c2)cc1OC

>  <assayed_system>
RXF 393 renal

>  <group_label>
active

$$$$

Next, consider the following molecule.
INPUT: Recorded test outcome, item C=C1CCC2C3(C)COC(c4ccccc4F)OC3CCC2(C)C1CC(O)C1=CCOC1=O (stereo not given)
OUTPUT: inactive

---

Test system: SF-539 CNS
run_description: NCI-60 one-dose screen, 48 h (100 = growth as untreated, 0 = no growth, -100 = all killed)
study_conditions: 10 µM unless noted
Compounds without any hit were thinned out: in the full panel of roughly 83,000, 20% have a hit.
growth: recorded values
Quick reminder: number only, in %, skip the unit.

# annotated cases, reported growth shown
>  <compound>
COc1cc(OC)c2c3nc4cc(C)c(C)cc4nc3n(CCN(C)C)c2c1

>  <assayed_system>
SF-539 CNS

>  <growth (%)>
-83.5

$$$$
>  <compound>
Cn1cc(-c2cc(N)n3nc(-c4cn(C)c5ccccc45)cc3n2)c2cc(Br)ccc21

>  <assayed_system>
SF-539 CNS

>  <growth (%)>
-72.3

$$$$

INPUT: Name the reported growth value associated with the compound COc1ccc(/C=C2\C(=O)Nc3ccc(Cl)cc32)cc1OCc1ccccn1
OUTPUT: -9.35

INPUT: Name the reported growth value associated with the compound C#CCOc1cc(N(CC)CC)ccc1C(C(=O)NC(C)(C)C)N(C(=O)C1CCc2cc(F)ccc2O1)c1ccc(F)c(Cl)c1 (stereo unspecified)
OUTPUT: 77.9

INPUT: Name the reported growth value associated with the compound COc1ccc(NC(=O)[C@H](CO)NC(=O)OC(C)(C)C)cc1C(=O)Nc1cccc(C2CC(=O)c3c(cc(OC)c(OC)c3OC)O2)c1 (stereo partly specified)
OUTPUT: 79.1

INPUT: Name the reported growth value associated with the compound CCOC(=O)c1ccc(Nc2nc(NN)nc(-c3ccc(F)cc3)c2C#N)cc1
OUTPUT: 104

INPUT: Name the reported growth value associated with the compound C#C[C@]1(O)CC[C@H]2[C@@H]3CC=C4c5sc(-c6ccc(O)c(O)c6)nc5CC[C@]4(C)[C@H]3CC[C@@]21C
OUTPUT: -93.2

---

System: BT-549 breast
run_description: NCI-60 one-dose screen, 48 h (100 = growth as untreated, 0 = no growth, -100 = all killed)
study_conditions: 10 µM unless noted
The panel holds about 83,000 compounds, 20% with a hit somewhere; the sample as a whole holds those more often.
Threshold 50%: growth strictly smaller gives T, otherwise F.

INPUT: Lab note: confirm whether the reported growth for this compound is below 50%, equality not counting. compound: NS(=O)(=O)c1ccc(N=Nc2c(O)n(CC(=O)Nc3ccccc3)c3ccccc23)cc1
OUTPUT: T

---

System: SF-539 CNS
run_description: NCI-60 one-dose screen, 48 h (100 = growth as untreated, 0 = no growth, -100 = all killed)
study_conditions: 10 µM unless noted
About 83,000 compounds went through this panel and 20% of them were active in at least one assay; those are over-represented in the sample as a whole.
growth: recorded values
Quick reminder: number only, in %, skip the unit.

# annotated cases, reported growth shown
>  <compound>
COc1cccc(-c2c(C#N)c(-c3ccc(Cl)cc3)nc3n[nH]c(-c4ccc(Cl)cc4)c23)c1

>  <growth, %>
38.1

$$$$
>  <compound>
CC(=O)Nc1ccc(-c2cn(-c3cccc(C(=O)Nc4ccc(N5CCN(C)CC5)cc4)c3)nn2)cn1

>  <growth, %>
68.6

$$$$
>  <compound>
C=C1CC[C@@H]2[C@]3(C)COC(c4cn(-c5ccccc5)nc4-c4ccccc4)O[C@@H]3CC[C@@]2(C)[C@@H]1C/C=C1/C(=O)OC[C@H]1O (some centres not stated)

>  <growth, %>
-98.6

$$$$
>  <compound>
Cc1ccc(C(SCCNCc2cc(N(C)C)ccn2)(c2ccccc2)c2ccccc2)cc1

>  <growth, %>
-99.1

$$$$
>  <compound>
CCCCNC(=S)Nc1ccc(OCc2nc3ccccc3[nH]2)cc1

>  <growth, %>
56.2

$$$$

INPUT: Name the reported growth value associated with the compound COc1cc(/C=C/C(=O)c2nnn(-c3ccc(Cl)cc3)c2C)cc(OC)c1OC
OUTPUT: 52

INPUT: Name the reported growth value associated with the compound CN(C)c1nc(NCCNS(=O)(=O)c2ccc(C3=Nc4c(N)nc(N)nc4NC(c4ccc(Cl)cc4)C3)cc2)nc(Nc2ccc(F)cc2)n1 (configuration not stated)
OUTPUT: -51.1
